pEC50 overview
- System: Z-138 cells
- assay explanation: Z-138 Proliferation Assay (Cell Titer Glo)
- Type: cell-based
- experimental conditions: Homo sapiens, 120 h, 5 days, top concentration 20 μM
pEC50: −log10 of the molar value.

compound: O=C1CN(c2cncc(N3CCOCC3)c2)CCN1CC(O)CN1CCc2ccccc2C1 (stereo not drawn)
target desc: Z-138 cells
pEC50: 5.00 to 6.00
--
compound: O=C1Cc2ccccc2N1CC(O)CN1CCc2ccccc2C1 (stereo not drawn)
target desc: Z-138 cells
pEC50: < 4.70
--
compound: O=C1CN(c2cccc(F)c2)CCN1CC(O)CN1CCc2ccccc2C1 (stereo not drawn)
target desc: Z-138 cells
pEC50: < 4.70
--
compound: O=C1COc2ccccc2N1CC(O)CN1CCc2ccccc2C1 (stereo not drawn)
target desc: Z-138 cells
pEC50: < 4.70
--
compound: O=C(NC1CCOCC1)c1ccn(CC(O)CN2CCc3ccccc3C2)c(=O)c1 (stereo not drawn)
target desc: Z-138 cells
pEC50: < 4.70
--
compound: CN(C)c1ccccc1N1CCN(C[C@H](O)CN2CCc3ccccc3C2)C(=O)C1
target desc: Z-138 cells
pEC50: 4.30 to 5.00
--
compound: O=C1CN(c2cccc3cccnc23)CCN1CC(O)CN1CCc2ccccc2C1 (stereo not drawn)
target desc: Z-138 cells
pEC50: 5.00 to 6.00
--
compound: O=C1CN(c2ccccc2Cl)CCN1CC(O)CN1CCc2ccccc2C1 (stereo not drawn)
target desc: Z-138 cells
pEC50: 4.30 to 5.00
--
compound: O=c1cc(Nc2ccccc2)ccn1C[C@H](O)CN1CCc2ccccc2C1
target desc: Z-138 cells
pEC50: < 4.70
--
compound: Cc1ccc(N2CCN(CC(O)CN3CCc4ccccc4C3)C(=O)C2)cc1 (stereo not drawn)
target desc: Z-138 cells
pEC50: < 4.70
--
compound: O=C1CN(c2ccc(Cl)cc2)CCN1CC(O)CN1CCc2ccccc2C1 (stereo not drawn)
target desc: Z-138 cells
pEC50: 4.30 to 5.00
--
compound: O=C1CN(c2cccc(N3CCOCC3)c2)CCN1CC(O)CN1CCc2ccccc2C1 (stereo not drawn)
target desc: Z-138 cells
pEC50: 5.00 to 6.00

====

- target desc: PRMT5/MEP50 (Homo sapiens (Human))
- Sequence (O14744 other isoform, or with tags, fused parts or gaps): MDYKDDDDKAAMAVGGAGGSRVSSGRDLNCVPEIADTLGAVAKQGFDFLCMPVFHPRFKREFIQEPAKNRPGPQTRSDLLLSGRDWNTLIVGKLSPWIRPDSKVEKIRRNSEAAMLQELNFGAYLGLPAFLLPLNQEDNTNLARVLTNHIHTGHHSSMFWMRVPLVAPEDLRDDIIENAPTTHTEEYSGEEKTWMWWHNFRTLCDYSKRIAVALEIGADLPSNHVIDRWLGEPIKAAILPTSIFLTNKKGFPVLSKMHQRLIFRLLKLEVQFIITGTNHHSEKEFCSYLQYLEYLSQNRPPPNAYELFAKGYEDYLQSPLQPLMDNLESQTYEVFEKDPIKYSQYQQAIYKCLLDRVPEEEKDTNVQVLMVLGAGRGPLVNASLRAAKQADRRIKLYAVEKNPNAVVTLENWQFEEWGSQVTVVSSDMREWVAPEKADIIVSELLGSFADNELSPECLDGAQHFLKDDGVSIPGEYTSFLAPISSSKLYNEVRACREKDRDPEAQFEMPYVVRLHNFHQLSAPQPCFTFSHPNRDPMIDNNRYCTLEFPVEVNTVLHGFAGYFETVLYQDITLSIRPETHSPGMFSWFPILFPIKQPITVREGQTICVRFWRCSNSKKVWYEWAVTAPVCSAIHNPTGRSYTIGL
- Sequence (Q9BQA1 other isoform, or with tags, fused parts or gaps partner): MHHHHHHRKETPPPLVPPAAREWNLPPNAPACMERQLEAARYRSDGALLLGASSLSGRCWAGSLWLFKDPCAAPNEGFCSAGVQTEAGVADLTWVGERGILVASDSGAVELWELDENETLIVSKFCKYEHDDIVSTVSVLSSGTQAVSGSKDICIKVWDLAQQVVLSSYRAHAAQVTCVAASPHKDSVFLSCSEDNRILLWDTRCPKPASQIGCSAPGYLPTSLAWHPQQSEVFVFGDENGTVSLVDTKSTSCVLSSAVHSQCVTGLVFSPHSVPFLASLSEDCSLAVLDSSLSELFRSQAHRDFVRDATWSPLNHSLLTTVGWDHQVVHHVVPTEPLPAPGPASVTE
- assay explanation: PRMT5 Biochemical Assay (PRMT5/MEP50 enzyme assay on peptide substrate, 3H-SAM Flashplate)
- experimental conditions: PRMT5/MEP50 4 nM, 3H-SAM 75 nM, peptide 40 nM
property: IC50

compound: O=c1cc(Nc2ccccc2)ccn1C[C@H](O)CN1CCc2ccccc2C1 [Compound 18]
target desc: PRMT5/MEP50 (Homo sapiens (Human))
property: IC50
result: 1000 to 10000 nM
--
compound: O=C1CN(c2cccc(N3CCOCC3)c2)CCN1CC(O)CN1CCc2ccccc2C1 (stereo not shown)
target desc: PRMT5/MEP50 (Homo sapiens (Human))
property: IC50
result: < 100 nM
--
compound: CN1CCN(CC(O)CN2CCc3ccccc3C2)C(=O)C1 (stereo not shown)
target desc: PRMT5/MEP50 (Homo sapiens (Human))
property: IC50
result: > 50000 nM
--
compound: O=C1CN(Cc2cccnc2)CCN1CC(O)CN1CCc2ccccc2C1 (stereo not shown)
target desc: PRMT5/MEP50 (Homo sapiens (Human))
property: IC50
result: 1000 to 10000 nM
--
compound: CC(=O)N1CCN(CC(O)CN2CCc3ccccc3C2)C(=O)C1 (stereo not shown)
target desc: PRMT5/MEP50 (Homo sapiens (Human))
property: IC50
result: 1000 to 10000 nM
--
compound: CS(=O)(=O)N1CCN(CC(O)CN2CCc3ccccc3C2)C(=O)C1 (stereo not shown)
target desc: PRMT5/MEP50 (Homo sapiens (Human))
property: IC50
result: 1000 to 10000 nM
--
compound: O=C1COCCN1CC(O)CN1CCc2ccccc2C1 (stereo not shown)
target desc: PRMT5/MEP50 (Homo sapiens (Human))
property: IC50
result: 1000 to 10000 nM
--
compound: O=C1CN(c2ccc(CO)cc2)CCN1CC(O)CN1CCc2ccccc2C1 (stereo not shown)
target desc: PRMT5/MEP50 (Homo sapiens (Human))
property: IC50
result: 101 to 1000 nM
--
compound: O=C1CN(Cc2ccccc2)CCN1CC(O)CN1CCc2ccccc2C1 (stereo not shown)
target desc: PRMT5/MEP50 (Homo sapiens (Human))
property: IC50
result: 1000 to 10000 nM
--
compound: O=C1CN(c2cccc3cccnc23)CCN1CC(O)CN1CCc2ccccc2C1 (stereo not shown)
target desc: PRMT5/MEP50 (Homo sapiens (Human))
property: IC50
result: < 100 nM
--
compound: O=C1CN(c2ccc(Cl)cc2)CCN1CC(O)CN1CCc2ccccc2C1 (stereo not shown)
target desc: PRMT5/MEP50 (Homo sapiens (Human))
property: IC50
result: < 100 nM
--
compound: O=C1CC(c2ccccc2)CCN1C[C@H](O)CN1CCc2ccccc2C1 (stereo partly shown)
target desc: PRMT5/MEP50 (Homo sapiens (Human))
property: IC50
result: 1000 to 10000 nM
--
compound: O=c1cccc(CC(O)CN2CCc3ccccc3C2)[nH]1 (stereo not shown)
target desc: PRMT5/MEP50 (Homo sapiens (Human))
property: IC50
result: 10000 to 50000 nM
--
compound: O=C1Cc2ccccc2N1CC(O)CN1CCc2ccccc2C1 (stereo not shown)
target desc: PRMT5/MEP50 (Homo sapiens (Human))
property: IC50
result: 101 to 1000 nM
--
compound: O=C1CN(c2cccc(F)c2)CCN1CC(O)CN1CCc2ccccc2C1 (stereo not shown)
target desc: PRMT5/MEP50 (Homo sapiens (Human))
property: IC50
result: < 100 nM
--
compound: Cc1cccc(N2CCN(CC(O)CN3CCc4ccccc4C3)C(=O)C2)c1 (stereo not shown)
target desc: PRMT5/MEP50 (Homo sapiens (Human))
property: IC50
result: 10000 to 50000 nM
--
compound: O=C(NC1CCOCC1)C1CC(=O)N(CC(O)CN2CCc3ccccc3C2)C1 (stereo not shown)
target desc: PRMT5/MEP50 (Homo sapiens (Human))
property: IC50
result: > 10000 nM
--
compound: O=C1CN(c2cccc(Cl)c2)CCN1CC(O)CN1CCc2ccccc2C1 (stereo not shown)
target desc: PRMT5/MEP50 (Homo sapiens (Human))
property: IC50
result: < 100 nM
--
compound: O=C1CN(Cc2ccccn2)CCN1CC(O)CN1CCc2ccccc2C1 (stereo not shown)
target desc: PRMT5/MEP50 (Homo sapiens (Human))
property: IC50
result: 1000 to 10000 nM
--
compound: O=C1COc2ccccc2N1CC(O)CN1CCc2ccccc2C1 (stereo not shown)
target desc: PRMT5/MEP50 (Homo sapiens (Human))
property: IC50
result: 101 to 1000 nM
--
compound: O=C1CN(c2ccccc2Cl)CCN1CC(O)CN1CCc2ccccc2C1 (stereo not shown)
target desc: PRMT5/MEP50 (Homo sapiens (Human))
property: IC50
result: 101 to 1000 nM
--
compound: O=C1CC(c2ccccc2)CCN1C[C@@H](O)CN1CCc2ccccc2C1 (stereo partly shown)
target desc: PRMT5/MEP50 (Homo sapiens (Human))
property: IC50
result: 1000 to 10000 nM
--
compound: O=C1CN(C2CCOCC2)CCN1CC(O)CN1CCc2ccccc2C1 (stereo not shown)
target desc: PRMT5/MEP50 (Homo sapiens (Human))
property: IC50
result: 1000 to 10000 nM
--
compound: Cc1ccc(N2CCN(CC(O)CN3CCc4ccccc4C3)C(=O)C2)cc1 (stereo not shown)
target desc: PRMT5/MEP50 (Homo sapiens (Human))
property: IC50
result: 101 to 1000 nM
--
compound: CN(C)c1ccc(N2CCN(C[C@H](O)CN3CCc4ccccc4C3)C(=O)C2)cc1
target desc: PRMT5/MEP50 (Homo sapiens (Human))
property: IC50
result: 1000 to 10000 nM
--
compound: O=c1cc(Nc2ccccc2)ccn1C[C@H](O)CN1CCc2ccccc2C1 [Compound 19]
target desc: PRMT5/MEP50 (Homo sapiens (Human))
property: IC50
result: 101 to 1000 nM
--
compound: O=C1CN(c2cncc(N3CCOCC3)c2)CCN1CC(O)CN1CCc2ccccc2C1 (stereo not shown)
target desc: PRMT5/MEP50 (Homo sapiens (Human))
property: IC50
result: < 100 nM
--
compound: CN(C)c1ccccc1N1CCN(C[C@H](O)CN2CCc3ccccc3C2)C(=O)C1
target desc: PRMT5/MEP50 (Homo sapiens (Human))
property: IC50
result: 101 to 1000 nM
